Cited source for all entries: patent US8895474B2

System: Alopecurus myosuroides (ALOMY)
METHOD_NOTES: Post-emergence herbicidal activity, glasshouse pot test
Format: in vivo
STATED_CONDITIONS: 312 h, rate 250 g/ha, evaluated after 13 days, 100=total damage to plant, 0=no damage to plant
Procedure: Seeds of a variety of test species were sown in standard soil in pots. […] After 13 days for pre and post-emergence, the test was evaluated (100=total damage to plant; 0=no damage to plant). […]
Label rule, in plain words: pest or weed control at 250 g/ha of 60% and up is Criterion met, under 60% is Criterion not met.

Consider the worked cases shown below.
- COMPOUND: "CCc1ccc(Oc2ccc(Cl)cc2)cc1C1=C(O)[C@H]2[C@@H](C1=O)[C@@H]1CC[C@H]2O1"
  QUALITATIVE_LABEL: "Criterion met"
- COMPOUND: "CCc1ccc(Oc2ccc(Br)cc2F)cc1C1=C(O)C2C(C1=O)[C@H]1CC[C@@H]2CC1 (some centres unmarked)"
  QUALITATIVE_LABEL: "Criterion met"
- COMPOUND: "CCc1ccc(Oc2nc3ccccc3s2)cc1C1=C(O)C2C(C1=O)[C@H]1CC[C@@H]2CC1 (some centres unmarked)"
  QUALITATIVE_LABEL: "Criterion met"
- COMPOUND: "CCc1ccc(Oc2ccc(Br)cc2)cc1C1=C(O)[C@H]2[C@H]3CC[C@H](C3)[C@H]2C1=O"
  QUALITATIVE_LABEL: "Criterion not met"
- COMPOUND: "CCc1ccc(Oc2ccc(C(F)(F)F)cc2[N+](=O)[O-])cc1C1=C(O)C2C(C1=O)[C@H]1CC[C@@H]2CC1 (some centres unmarked)"
  QUALITATIVE_LABEL: "Criterion not met"

Exercise: Exam item: decide whether the reported pest or weed control at 250 g/ha for CCc1ccc(Oc2ccc(Cl)c(F)c2)cc1C1=C(O)C2C(C1=O)[C@H]1CC[C@@H]2CC1 (some centres unmarked) is at least 60%.
Key: Criterion met

Exercise: Hi, just wondering whether CCc1ccc(Oc2cnc3ccccc3n2)cc1C1=C(O)CCC1=O shows pest or weed control at 250 g/ha of 60% or higher.
Key: Criterion met

Exercise: State whether the measured pest or weed control at 250 g/ha reaches 60%, counting equality as reaching it, for CCc1ccc(Oc2ncc(Cl)cc2C(F)(F)F)cc1C1=C(O)CCC1=O
Key: Criterion met

Exercise: Could you please find out whether CCc1ccc(Oc2ccc(Br)cc2Cl)cc1C1=C(O)[C@H]2[C@@H](C1=O)[C@@H]1CC[C@H]2O1 has pest or weed control at 250 g/ha that meets 60% or exceeds it?
Key: Criterion met

Exercise: Kindly determine if pest or weed control at 250 g/ha recorded for CCc1ccc(Oc2ccccc2Cl)cc1C1=C(O)[C@H]2[C@@H](C1=O)[C@@H]1CC[C@H]2O1 is above or exactly 60%.
Key: Criterion not met

----------
Test system: Avena fatua (AVEFA)
METHOD_NOTES: Post-emergence herbicidal activity, glasshouse pot test
Type: in vivo
STATED_CONDITIONS: 312 h, rate 250 g/ha, evaluated after 13 days, 100=total damage to plant, 0=no damage to plant
Hi! Just check whether pest or weed control at 250 g/ha is below 50%. Below gives 1.0, equal or above gives 0.0.

Here's what some known entries look like.
- COMPOUND: "CCc1ccc(Oc2ccc(Br)cc2Cl)cc1C1=C(O)[C@H]2[C@H]3CC[C@H](C3)[C@H]2C1=O"
  TARGET: "Avena fatua (AVEFA)"
  QUALITATIVE_LABEL: 1.0
- COMPOUND: "CCc1ccc(Oc2ccc(Cl)cc2)cc1C1=C(O)[C@H]2[C@H]3CC[C@H](C3)[C@H]2C1=O"
  TARGET: "Avena fatua (AVEFA)"
  QUALITATIVE_LABEL: 0.0
- COMPOUND: "CCc1ccc(Oc2ccc(C(F)(F)F)cn2)cc1C1=C(O)CCC1=O"
  TARGET: "Avena fatua (AVEFA)"
  QUALITATIVE_LABEL: 0.0
- COMPOUND: "CCc1ccc(Oc2ccc(Br)cc2)cc1C1=C(O)[C@H]2[C@H]3CC[C@H](C3)[C@H]2C1=O"
  TARGET: "Avena fatua (AVEFA)"
  QUALITATIVE_LABEL: 0.0
- COMPOUND: "CCc1ccc(Oc2ccc(Br)cc2F)cc1C1=C(O)[C@H]2[C@@H](C1=O)[C@@H]1CC[C@H]2O1"
  TARGET: "Avena fatua (AVEFA)"
  QUALITATIVE_LABEL: 0.0

Exercise: Strictly below 50%: is that where pest or weed control at 250 g/ha of O=C1CCC(O)=C1c1cc(Oc2ccc(Cl)cc2)ccc1OC(F)(F)F sits?
Key: 1.0

Exercise: Identify whether the compound CCc1ccc(Oc2ccc(Cl)c(Cl)c2)cc1C1=C(O)CCC1=O records pest or weed control at 250 g/ha below 50%.
Key: 1.0

Exercise: Find out if reported pest or weed control at 250 g/ha for CCc1ccc(Oc2ccc(Br)cc2)cc1C1=C(O)[C@H]2[C@@H](C1=O)[C@@H]1CC[C@H]2O1 is less than 50%
Key: 0.0

Exercise: Hi there! Is pest or weed control at 250 g/ha for CCc1ccc(Oc2cccc(Cl)c2)cc1C1=C(O)[C@H]2[C@@H](C1=O)[C@@H]1CC[C@H]2O1 below 50%, do you know?
Key: 0.0

Exercise: # check: pest or weed control at 250 g/ha < 50% for CCc1ccc(Oc2ccc(C(F)(F)F)c(C#N)c2)cc1C1=C(O)CCC1=O
Key: 1.0

Exercise: Field: below-cutoff. Rule: recorded pest or weed control at 250 g/ha strictly less than 50%. Subject: CCc1ccc(Oc2ccc(Br)cc2Cl)cc1C1=C(O)[C@H]2[C@@H](C1=O)[C@@H]1CC[C@H]2O1
Key: 0.0

Exercise: Does the reported pest or weed control at 250 g/ha of the following compound sit strictly below 50%? CCc1ccc(Oc2ncc(Cl)cc2F)cc1C1=C(O)CCC1=O
Key: 0.0

Exercise: Please determine if CCc1ccc(Oc2nc3ccccc3s2)cc1C1=C(O)C2C(C1=O)[C@H]1CC[C@@H]2CC1 (stereo partly drawn) is below 50% in terms of pest or weed control at 250 g/ha.
Key: 0.0

Exercise: State whether 50% exceeds pest or weed control at 250 g/ha recorded for CCc1ccc(Oc2ccc(Cl)c(F)c2)cc1C1=C(O)CCC1=O .
Key: 1.0
